Hey, just so you know, these numbers are from ChEMBL document CHEMBL5724709.

Tested on: HEK-293T
Test: Incucyte cell viability with HEK293T; note: unitless GR value; below 1 slowed growth and below 0 cell loss
Format: toxicity, cell-based
Settings: human, 24 h, 10 µM, compound concentration 10 uM, replicate number 2
Peptide text beside a SMILES is read from it. * marks the point of attachment. Cbz = O=C(OCc1ccccc1)*; CH2F = FC*
Values of Growth Rate greater than or equal to 0.9 map to true (1); values below map to false (0).

N#C[C@@H]1CCCN1C(=O)[C@@H]1CCCN1C(=O)CCCc1ccccc1: true (1)
COC(=O)CC[C@H](NC(=O)[C@H](C)NC(=O)OCc1ccccc1)C(=O)N[C@H](C(=O)N[C@@H](CC(=O)OC)C(=O)CF)C(C)C (Cbz-AE(OMe)VD(OMe)-CH2F): true (1)
FC(F)(F)Oc1ccc(Oc2ccnc(N3CCC(NC(=S)Nc4cccnc4)CC3)c2Cl)c(Cl)c1: false (0)
O=C(Nc1c[nH]nc1C(=O)NC1CCNCC1)c1cc(F)cc(F)c1: false (0)

Reported Growth Rate reaches at least 0.9 for "CC(=O)Nc1ccc(C(=O)Nc2ccc(F)cc2N)cc1" ?
true (1)

Reported Growth Rate reaches at least 0.9 for "C[C@]12O[C@H](C[C@]1(O)CO)n1c3ccccc3c3c4c(c5c6ccccc6n2c5c31)CNC4=O" ?
false (0)
